Test system: Staphylococcus aureus
Details: Concentration 32 ug.mL-1;; ASSAY_TEST Inhibition of Bacterial Growth; detection method Absorption (OD600); MEDIA CAMHB; plate type 384well; NBS; CORNING #3640; time 18 hr
Description: Antibacterial activity against Staphylococcus aureus MRSA ATCC 43300 (CO-ADD:GP_020); MIC in CAMBH media, using NBS plates, by OD(600)
Entries with a potency or affinity are not part of this list.
Listing of entries alongside the reported Inhibition.

[
  {
    "Compound": "COc1ccc(NC(=O)Cn2nc3c(N4CCCC(C)C4)nccn3c2=O)cc1OC (stereo not given)",
    "Inhibition": "-18.12%"
  },
  {
    "Compound": "CCC(C)NC(=O)c1ccc2c(=O)n(C3CC3)c3nn(CC(=O)NC(C)C)c(=O)n3c2c1 (stereo not given)",
    "Inhibition": "10.01%"
  },
  {
    "Compound": "CCCCN(C)c1ccc2nnc(CCc3nc(-c4ccc(OCc5ccccc5)cc4)no3)n2n1",
    "Inhibition": "-12.25%"
  },
  {
    "Compound": "CCOc1ccc(NC(=O)Cn2nc3ccc(Sc4cccc(F)c4)nn3c2=O)cc1",
    "Inhibition": "2.36%"
  },
  {
    "Compound": "Cc1cccc(NC(=O)Cn2nc3c4cc(-c5ccc(Cl)cc5)nn4ccn3c2=O)c1C",
    "Inhibition": "5.13%"
  }
]

###

System: Staphylococcus aureus
Details: Concentration 32 ug.mL-1;; ASSAY_TEST Inhibition of Bacterial Growth; detection method Absorption (OD600); MEDIA CAMHB; plate type 384well; NBS; CORNING #3640; time 18 hr
Entries with a potency or affinity are not part of this list.
Listed molecules paired with reported Inhibition

[
  {
    "Molecule": "Cc1cc2nn(CC(=O)N3CCOCC3)c(=O)n2c(Nc2ccc(C)c(F)c2)n1",
    "Inhibition": "15.64%"
  },
  {
    "Molecule": "Cc1ccc(-c2ccc3nn(CC(=O)Nc4c(C)cccc4C)c(=O)n3n2)cc1C",
    "Inhibition": "-0.95%"
  },
  {
    "Molecule": "Cc1ccc(Cn2nc3c(=O)n(-c4ccc(C)c(C)c4)ccn3c2=O)cc1",
    "Inhibition": "14.06%"
  },
  {
    "Molecule": "COc1ccc(NC(=O)Cn2nc3c4cc(-c5ccc(OC)cc5)nn4ccn3c2=O)cc1",
    "Inhibition": "8.44%"
  },
  {
    "Molecule": "CCC(C)NC(=O)Cn1c(=O)c2nnc(C)n2c2ccccc21 (stereo not given)",
    "Inhibition": "9.8%"
  },
  {
    "Molecule": "CCCCn1c(=O)c2sccc2n2c(CCC(=O)Nc3ccc(OC(F)(F)F)cc3)nnc12",
    "Inhibition": "0.43%"
  },
  {
    "Molecule": "Cc1nnc2c(S(=O)(=O)N(Cc3ccccc3Cl)c3ccc(F)c(F)c3)cccn12",
    "Inhibition": "38.47%"
  },
  {
    "Molecule": "Cc1ccc(Sc2nccn3c(=O)n(CC(=O)Nc4cc(Cl)ccc4C)nc23)c(C)c1",
    "Inhibition": "-0.43%"
  },
  {
    "Molecule": "Cc1nnc2ccc(S(=O)(=O)N(Cc3ccccc3)c3cccc(F)c3)cn12",
    "Inhibition": "2.5%"
  },
  {
    "Molecule": "O=c1c2nnc(SCc3cccc(F)c3)n2ccn1-c1ccc(Br)cc1",
    "Inhibition": "15.11%"
  },
  {
    "Molecule": "COc1cccc(CNC(=O)CSc2nnc3c(=O)n(-c4ccc(C)c(C)c4)ccn23)c1OC",
    "Inhibition": "3.35%"
  },
  {
    "Molecule": "CCC(Sc1nnc2c(=O)n(-c3cccc(OC)c3)ccn12)C(=O)Nc1cc(OC)cc(OC)c1 (stereo not given)",
    "Inhibition": "13.02%"
  },
  {
    "Molecule": "Cc1cc(C)cc(Oc2nccn3c(=O)n(CC(=O)Nc4ccc(Cl)cc4F)nc23)c1",
    "Inhibition": "18.94%"
  },
  {
    "Molecule": "CCOC(=O)c1ccc(NC(=O)CSc2nc3ccccc3n3c(C(C)C)nnc23)cc1",
    "Inhibition": "-3.17%"
  },
  {
    "Molecule": "CC(C)c1nnc2c(=O)n(CC(=O)Nc3ccc(F)cc3F)c3ccccc3n12",
    "Inhibition": "12.23%"
  },
  {
    "Molecule": "CCOc1ccc(-n2ccn3c(SCc4cccc(C(F)(F)F)c4)nnc3c2=O)cc1",
    "Inhibition": "18.58%"
  },
  {
    "Molecule": "Cc1cccc(Sc2nccn3c(=O)n(CC(=O)N4CCN(c5ccc(F)cc5)CC4)nc23)c1",
    "Inhibition": "-10.95%"
  },
  {
    "Molecule": "COC(=O)c1ccccc1NC(=O)Cn1nc2c3cc(-c4ccc(OC)cc4)nn3ccn2c1=O",
    "Inhibition": "11.07%"
  },
  {
    "Molecule": "Cc1ccc(Cn2nc3c(=O)n(-c4cccc(F)c4)ccn3c2=O)cc1",
    "Inhibition": "6.58%"
  },
  {
    "Molecule": "Cc1cccc(NC(=O)Cn2nc3c(SC4CCCCC4)nccn3c2=O)c1C",
    "Inhibition": "2.67%"
  },
  {
    "Molecule": "COc1ccc(Cl)cc1NC(=O)CSc1nnc2c(=O)n(-c3ccccc3)ccn12",
    "Inhibition": "7.26%"
  },
  {
    "Molecule": "CCOc1ccc(-n2ccn3c(SCC(=O)Nc4ccc(F)cc4F)nnc3c2=O)cc1",
    "Inhibition": "5.96%"
  },
  {
    "Molecule": "CCc1ccccc1NC(=O)CSc1nnc2c(=O)n(-c3ccccc3)ccn12",
    "Inhibition": "10.95%"
  },
  {
    "Molecule": "Cc1ccc(-c2cc3c4nn(CC(=O)Nc5cc(Cl)ccc5C)c(=O)n4ccn3n2)cc1C",
    "Inhibition": "2.42%"
  },
  {
    "Molecule": "O=C(CCc1nnc2c(N3CCCCC3)nc3ccccc3n12)NCCc1ccc(Cl)cc1",
    "Inhibition": "11.18%"
  },
  {
    "Molecule": "COc1cccc(Oc2nccn3c(=O)n(CC(=O)NC4CCCCC4)nc23)c1",
    "Inhibition": "3.01%"
  },
  {
    "Molecule": "COc1cc(OC)c(NC(=O)Cn2nc3c(N4CCOCC4)nccn3c2=O)cc1Cl",
    "Inhibition": "4.84%"
  },
  {
    "Molecule": "COC(=O)c1ccccc1NC(=O)Cn1nc2c(SC3CCCCC3)nccn2c1=O",
    "Inhibition": "-10.07%"
  },
  {
    "Molecule": "CN(Cc1ccccc1)C(=O)CSc1nnc2c3cc(-c4ccccc4)nn3ccn12",
    "Inhibition": "11.08%"
  },
  {
    "Molecule": "Cc1cccc(CN(c2cccc(Cl)c2)S(=O)(=O)c2cccn3c(C)nnc23)c1",
    "Inhibition": "9.05%"
  },
  {
    "Molecule": "O=C(Cn1nc2ccc(SCc3ccc(Cl)cc3)nn2c1=O)NC1CCCCC1",
    "Inhibition": "0.02%"
  },
  {
    "Molecule": "COc1cccc(Sc2nc3ccccc3n3c(=O)n(CC(=O)Nc4c(C)cc(C)cc4C)nc23)c1",
    "Inhibition": "1.84%"
  },
  {
    "Molecule": "COc1ccc(-n2ccn3c(-c4ccc([N+](=O)[O-])cc4)nnc3c2=O)cc1",
    "Inhibition": "12.69%"
  },
  {
    "Molecule": "CC(C)c1nnc2c(SCC(=O)N3CCN(c4ccc(F)cc4)CC3)nc3ccccc3n12",
    "Inhibition": "10.21%"
  },
  {
    "Molecule": "Cc1ccc(-c2cc3c4nn(CC(=O)Nc5ccc(Br)cc5)c(=O)n4ccn3n2)cc1C",
    "Inhibition": "0.82%"
  },
  {
    "Molecule": "O=C(CSc1nnc2c(=O)n(-c3ccccc3)ccn12)Nc1cccc(F)c1",
    "Inhibition": "13%"
  },
  {
    "Molecule": "Cc1ccc(-c2ccc3nn(Cc4c(F)cccc4Cl)c(=O)n3n2)cc1",
    "Inhibition": "14.3%"
  },
  {
    "Molecule": "Cc1cc(C)c(NC(=O)Cn2nc3c4cc(-c5ccc(F)cc5)nn4ccn3c2=O)c(C)c1",
    "Inhibition": "12.62%"
  },
  {
    "Molecule": "Cc1cccc(C)c1NC(=O)CSc1nnc2c3cc(-c4ccc(F)cc4)nn3ccn12",
    "Inhibition": "-13.2%"
  },
  {
    "Molecule": "CC(C)(C)S(=O)(=O)c1ccc2nn(CC(=O)Nc3ccc(Br)cc3)c(=O)n2n1",
    "Inhibition": "3.67%"
  }
]
